System: CCL7_HUMAN (Homo sapiens, UniProt P80098)
Sequence (P80098 24-99): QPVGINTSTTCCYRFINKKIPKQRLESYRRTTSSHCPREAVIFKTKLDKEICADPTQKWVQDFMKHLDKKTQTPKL
Assay Protocol: Biolayer interferometry (BLI) binding
Please provide measured pKd for the entries that follow.
To interpret pKd, take it as minus log10 of a concentration measured in moles per litre.

IN: Return reported pKd; argument: P1180_AMBTR: tick CKBP, Amblyomma triste (protein, Amblyomma triste) EEPKDGYDYTEGCPFVVLGNGTHAKPAGCSHLCNGAPETLDDNMECYNVTEEVAKRMTPDIPYTCWLGWCSKGECKRDNRTEVCYRGSERE
OUT: 7.01

IN: Return reported pKd; argument: P672_RHIPU: tick CKBP, Rhipicephalus pulchellus (protein, listed as Rhipicephalus pulchellus) VCEVSEQEGVGEDNATEDEDYEDFFKPVTCYFANSTVGPLRPPNCTVVCTNNTAWWNDTKSDGGHCYSEYRPEKRTHSREIYNCTIGVCGNGTCIANHTYADCW
OUT: 7.80

IN: Return reported pKd; argument: P983_AMBPA: tick CKBP; named P983_AMBCA in Table 1 (protein, Amblyomma cajennense) EDTGTEDDFDYGNTGCPFPVLGNYKSNMTKPVGCKNKCGSGYEVLNDTTPCYVIDQKVFNNMVPLRQYSKCPLGFCENGECKPNDQAEDCYKGREEQK
OUT: 7.49

IN: Return reported pKd; argument: P991_AMBCA: tick CKBP, Amblyomma cajennense (protein, Amblyomma cajennense) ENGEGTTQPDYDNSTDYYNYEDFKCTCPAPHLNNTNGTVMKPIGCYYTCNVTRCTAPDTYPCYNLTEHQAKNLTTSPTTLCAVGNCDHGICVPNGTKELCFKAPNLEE
OUT: 9.29

IN: Return reported pKd; argument: P974_AMBCA: tick CKBP, Amblyomma cajennense; ACA-01 stated identical (protein, Amblyomma cajennense, tick CKBP, Amblyomma cajennense; ACA-01 stated identical) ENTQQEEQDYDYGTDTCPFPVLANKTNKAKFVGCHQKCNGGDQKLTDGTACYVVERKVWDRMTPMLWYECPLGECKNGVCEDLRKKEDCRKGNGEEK
OUT: 7.39

IN: Return reported pKd; argument: P1183_AMBTR: tick CKBP, Amblyomma triste (protein, Amblyomma triste) EAPKDDFEYDGGCPFVVLDNGTHVKPAGCSHLCNGAPETLDNIECYNVTEEVAKRMTPGIPYACWLGWCSKGECKRDNRTEVCYRGSEEE
OUT: 8.27

IN: Return reported pKd; argument: P1181_AMBMA: tick CKBP, Amblyomma maculatum (protein, listed as Amblyomma maculatum) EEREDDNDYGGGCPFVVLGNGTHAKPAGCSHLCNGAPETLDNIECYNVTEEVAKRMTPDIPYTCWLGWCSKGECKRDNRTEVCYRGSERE
OUT: 6.92

IN: Return reported pKd; argument: P985_AMBPA: tick CKBP, Amblyomma parvum (protein, listed as Amblyomma parvum) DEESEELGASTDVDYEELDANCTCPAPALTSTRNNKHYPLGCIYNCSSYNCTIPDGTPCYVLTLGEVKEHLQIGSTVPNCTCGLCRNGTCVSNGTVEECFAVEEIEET
OUT: 7.21
